experiment: in vivo; design: species or system cynomolgus monkeys (Macaca fascicularis); conditions: cynomolgus monkey, po, 4 mg/kg
metric: level at time molar

I'd like to know its level at time molar. The molecule in question is CC[C@H](C)[C@H](NC(=O)[C@H](N)Cc1ccc(O)cc1)C(=O)N[C@H]1CSSC[C@@H](C(=O)N(C)[C@H](C(N)=O)[C@@H](C)CC)NC(=O)[C@H](CCCNC(=N)N)NC(=O)[C@H](Cc2c[nH]cn2)NC(=O)[C@H](C)NC(=O)CN(C)C(=O)[C@H](Cc2c[nH]c3ccccc23)NC(=O)[C@H](CC(=O)O)NC(=O)[C@H](CCC(N)=O)NC(=O)[C@H](Cc2cn(C)c3ccccc23)NC(=O)[C@H](C(C)C)NC1=O [peptide 14]
~23 nM
